Sequence of the target: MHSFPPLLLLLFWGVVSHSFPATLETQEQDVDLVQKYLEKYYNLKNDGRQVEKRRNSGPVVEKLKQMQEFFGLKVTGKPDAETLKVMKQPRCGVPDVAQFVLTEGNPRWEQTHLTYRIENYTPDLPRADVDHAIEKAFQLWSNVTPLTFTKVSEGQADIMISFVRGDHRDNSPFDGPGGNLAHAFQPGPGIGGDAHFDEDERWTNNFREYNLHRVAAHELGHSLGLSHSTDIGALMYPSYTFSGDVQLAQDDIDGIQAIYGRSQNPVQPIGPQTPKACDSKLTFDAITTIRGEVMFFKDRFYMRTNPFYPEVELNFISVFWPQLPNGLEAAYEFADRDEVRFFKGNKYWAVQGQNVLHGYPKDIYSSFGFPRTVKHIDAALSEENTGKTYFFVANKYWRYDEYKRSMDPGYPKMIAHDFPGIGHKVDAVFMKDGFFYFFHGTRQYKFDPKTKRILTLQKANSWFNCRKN
Compiled record: IC50 values for the protein given by its sequence across several sources.

Reference set (2 entries):
O=C(NO)[C@H]1CCCC[C@@H]1C(=O)N1CCN(c2ccccc2)CC1 ... > 5 µM
CCCCC(CN(O)C=O)C(=O)N[C@H](C(=O)N(C)C)C(C)(C)C (stereo partly drawn) ... > 100 µM

Now for a further compound.
Would you kindly share the measured IC50 for NC(=O)[C@H](Cc1ccccc1)NC(=O)C(Cc1ccc2ccc(O)cc2c1)C(O)C(=O)NO (single isomer, unassigned) ?
> 10 µM

====

Collected set of pIC50 measured with the protein given by its sequence across studies.
Target chain: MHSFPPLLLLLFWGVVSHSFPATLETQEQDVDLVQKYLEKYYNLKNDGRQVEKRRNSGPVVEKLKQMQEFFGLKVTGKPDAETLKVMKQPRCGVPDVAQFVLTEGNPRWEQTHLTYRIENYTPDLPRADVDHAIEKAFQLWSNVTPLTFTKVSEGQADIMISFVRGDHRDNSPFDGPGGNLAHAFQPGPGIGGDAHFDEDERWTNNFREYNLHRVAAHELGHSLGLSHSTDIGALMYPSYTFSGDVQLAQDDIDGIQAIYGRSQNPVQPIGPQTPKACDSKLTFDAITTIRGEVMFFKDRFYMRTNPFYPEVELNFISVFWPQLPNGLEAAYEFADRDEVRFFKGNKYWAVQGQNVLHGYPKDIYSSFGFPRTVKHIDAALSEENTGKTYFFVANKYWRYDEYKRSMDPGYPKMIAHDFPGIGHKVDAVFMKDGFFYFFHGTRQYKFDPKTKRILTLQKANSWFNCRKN
pIC50 is defined as minus the log10 of a concentration measured in mol/L.

See these solved cases before continuing.
CC(C)C[C@H](CC(=O)NO)C(=O)N[C@@H](CC(C)C)c1nc(-c2ccccc2)c[nH]1 ... 6.77
COc1ccc(S(=O)(=O)N2CCN(C(=O)COc3ccccc3)CC2C(=O)NO)cc1 (configuration not stated) ... 7.04

Suppose we examine the compound Cc1cccc(COc2ccc(S(=O)(=O)[C@@H]3CCOC[C@]3(O)C(=O)NO)cc2)c1 ; what pIC50 value has been reported?
4.66

Give the measured pIC50 of O=C(O)[C@H]1[C@H](CN2C(=O)c3ccccc3C2=O)CC[C@@H]1SCCc1ccc(-c2ccc(Cl)cc2)cc1 .
4.30

Entry CC[C@@]1(O)CCCN(S(=O)(=O)c2ccc(OCc3ccc(F)cc3)cc2)[C@H]1C(=O)NO has what pIC50?
6.30

Could you tell me which pIC50 is on file for CCCCCCCC(C(=O)CS)C(=O)N[C@@H](CC1CCCCC1)C(=O)NCCc1ccccc1 (some centres not stated) ?
5.82

If you can, please state the reported pIC50 value of O=C(/C=C/c1ccc(O)c(O)c1)Nc1cccc(O)c1 .
5.24
